Molecular target: KRas G12C (Homo sapiens, UniProt P01116, G12C)
Sequence (P01116 1-188 isoform P01116-2 G12C): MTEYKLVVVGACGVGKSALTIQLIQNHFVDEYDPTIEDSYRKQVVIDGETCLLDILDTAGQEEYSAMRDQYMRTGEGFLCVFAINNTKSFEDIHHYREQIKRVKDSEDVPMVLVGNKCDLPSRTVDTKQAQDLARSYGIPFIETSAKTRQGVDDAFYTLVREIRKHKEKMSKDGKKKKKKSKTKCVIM
Test: Inhibition of KRas G12C in NCI-H358 cells measured by phosphorylated ERK (Phospho-ERK)
Settings: 3 hours, 4 parameter fit, read-out: IC50 (pERK(Thr202/Tyr204) signal normalized with GAPDH)
METRIC: IC50

Example cases with answers are listed next.
1) C=C(F)C(=O)N1CCN(c2nc(OC3CC4(C3)CN(C)C4)nc3c2CCN(c2cccc4ccc(F)c(Cl)c24)C3)C[C@@H]1CC#N = 1000 to 10000 nM
2) C=C(F)C(=O)N1CCN(c2nc(OCCNCC(F)F)nc3c2CCN(c2cccc4ccc(F)c(Cl)c24)C3)C[C@@H]1CC#N = 0.1 to 1000 nM

IC50 in this record for C=C(F)C(=O)N1CCN(c2nc(OC[C@@H]3CCCN3C3CCC3)nc3c2CCN(c2cccc4ccc(F)c(Cl)c24)C3)C[C@@H]1CC#N : 0.1 to 1000 nM
